# target-of-assay: human blood platelet PDE5 (Homo sapiens, UniProt O76074)
# Construct: obtained by suitably treating various tissues and separating the enzyme with FPLC; from tissue; host or cells: human blood platelets
# test-protocol: PDE5 enzyme inhibition activity test (scintillation proximity)
# Format: biochemical
# condition-notes: PDE5 table
metric: IC50 (nM)

> print(dat)
                                   compound                           target.of.assay  number
1  CCCOc1ccc(C(=O)NC(C)C(=O)OC)cc1-c1nc(CC)c(CC)c(=O)[nH]1 (centres unmarked)  human blood platelet PDE5 (Homo sapiens, UniProt O76074)    0.54
2  CCCOc1ccc(S(=O)(=O)N2CCN(CCO)CC2)cc1-c1nc(CC)c(CC)c(=O)[nH]1  human blood platelet PDE5 (Homo sapiens, UniProt O76074)    1.13
3  CCCOc1ccc(NC(=O)N2CCCC2)cc1-c1nc(CC)c(CC)c(=O)[nH]1  human blood platelet PDE5 (Homo sapiens, UniProt O76074)    1.86
4  CCCOc1ccc(NC(=O)NCC)cc1-c1nc(CC)c(CC)c(=O)[nH]1  human blood platelet PDE5 (Homo sapiens, UniProt O76074)    0.53
5  CCCOc1ccc(C(=O)NC(CC(N)=O)C(=O)O)cc1-c1nc(CC)c(CC)c(=O)[nH]1 (centres unmarked)  human blood platelet PDE5 (Homo sapiens, UniProt O76074)    0.93

I = CCCOc1ccc(C(=O)CN2CCOCC2)cc1-c1nc(CC)c(CC)c(=O)[nH]1
II = CCCOc1ccc(C(=O)NC2C(O)OC(CO)C(O)C2O)cc1-c1nc(CC)c(CC)c(=O)[nH]1 (centres unmarked)
III = CCCOc1ccc(C(=O)NC(C)C(=O)O)cc1-c1nc(CC)c(CC)c(=O)[nH]1 (centres unmarked)
Thanks in advance: please rank these 3 entries by IC50, highest to lowest. Response field: labels, in requested order. I, II, III

---

# target-of-assay: human blood platelet PDE5 (Homo sapiens)
# Construct: obtained by suitably treating various tissues and separating the enzyme with FPLC; from tissue; host or cells: human blood platelets
# test-protocol: PDE5 enzyme inhibition activity test (scintillation proximity)
# Assay type: biochemical
# condition-notes: PDE5 table
metric: IC50 (nM)

Known results for compounds:
> print(dat)
                                   compound  unit.descriptor  number
1  CCCOc1ccc(S(=O)(=O)NCCN2CCOCC2)cc1-c1nc(CC)c(CC)c(=O)[nH]1               nM    1.36
2  CCCOc1ccc(NC(C)=O)cc1-c1nc(C(C)C)c(Br)c(=O)[nH]1               nM    1.46
3  CCCOc1ccc(NC(=O)CC(=O)OCC)cc1-c1nc(CC)c(CC)c(=O)[nH]1               nM    4.61

A = CCCOc1ccc(C(=O)NC(Cc2ccccc2)C(=O)O)cc1-c1nc(CC)c(CC)c(=O)[nH]1 (centres unmarked)
B = CCCOc1ccc(S(=O)(=O)NCCCS(=O)(=O)O)cc1-c1nc(CC)c(CC)c(=O)[nH]1
C = CCCOc1ccc(S(=O)(=O)NC(CCCNC(N)=O)C(=O)O)cc1-c1nc(CC)c(CC)c(=O)[nH]1 (centres unmarked)
D = CCCOc1ccc(C(=O)NCCS(=O)(=O)N(CC)CC)cc1-c1nc(CC)c(CC)c(=O)[nH]1
E = CCCOc1ccc(NC(=O)CC)cc1-c1nc(CC)c(CC)c(=O)[nH]1
Thanks in advance: please rank these 5 entries by IC50, highest to lowest. Response field: labels, in requested order. D, E, C, A, B

a = CCCOc1ccc(C(=O)NCCCS(=O)(=O)O)cc1-c1nc(CC)c(CC)c(=O)[nH]1
b = CCCOc1ccc(C(=O)N2CCOCC2)cc1-c1nc(CC)c(CC)c(=O)[nH]1
For the two items a and b , which reports the higher IC50 value? Pick one; state its label. b
(b: 0.57 nM, a: 0.11 nM)

P = CCCOc1ccc(C(=O)NC(Cc2ccccc2)C(=O)OC)cc1-c1nc(CC)c(CC)c(=O)[nH]1 (centres unmarked)
Q = CCCOc1ccc(C(=O)NCCCS(N)(=O)=O)cc1-c1nc(CC)c(CC)c(=O)[nH]1
R = CCCOc1ccc(S(=O)(=O)N2CCCC2C(=O)O)cc1-c1nc(CC)c(CC)c(=O)[nH]1 (centres unmarked)
Rank ascending by IC50. Response field: labels, in requested order. P, Q, R
(P: 0.52 nM, Q: 0.88 nM, R: 2.02 nM)

---

# target-of-assay: human blood platelet PDE5 (Homo sapiens, UniProt O76074)
# Construct: obtained by suitably treating various tissues and separating the enzyme with FPLC; from tissue; host or cells: human blood platelets
# test-protocol: PDE5 enzyme inhibition activity test (scintillation proximity)
# Assay type: biochemical
# condition-notes: as repeated in the PDE6 table
pIC50: −log10 of the molar value.
metric: pIC50

> print(dat)
                                   compound  number
1  CCCOc1ccc(C(=O)NC(Cc2ccccc2)C(=O)O)cc1-c1nc(CC)c(CC)c(=O)[nH]1 (stereo not shown)    9.33
2  CCCOc1ccc(NS(C)(=O)=O)cc1-c1nc(CC)c(CC)c(=O)[nH]1    8.91
3  CCCOc1ccc(NC(=O)c2ccccc2)cc1-c1nc(CC)c(CC)c(=O)[nH]1    9.47
4  CCCOc1ccc(NC(=O)C2CCCCC2)cc1-c1nc(CC)c(CC)c(=O)[nH]1    9.03

1 = CCCOc1ccc(C(=O)N2CCN(CCOCCO)CC2)cc1-c1nc(CC)c(CC)c(=O)[nH]1
2 = CCCOc1ccc(NC(=O)CCCNC(C)=O)cc1-c1nc(CC)c(CC)c(=O)[nH]1
When the recorded pIC50 values are compared, which is smaller: that of 1 or that of 2 ? Pick one; state its label. 1

A = CCCOc1ccc(C(=O)N2CCCC2C(=O)OC)cc1-c1nc(CC)c(CC)c(=O)[nH]1 (stereo not shown)
B = CCCOc1ccc(S(=O)(=O)N(CCO)CCN2CCOCC2)cc1-c1nc(CC)c(CC)c(=O)[nH]1
For the two items A and B , which reports the higher pIC50 value? Pick one; state its label. A
(A: 9.21, B: 9.00)

P = CCCOc1ccc(C(=O)N2CCCCC2)cc1-c1nc(CC)c(CC)c(=O)[nH]1
Q = CCCOc1ccc(C(=O)N2CCN(CCO)CC2)cc1-c1nc(CC)c(CC)c(=O)[nH]1
For the two items P and Q , which reports the higher pIC50 value? Pick one; state its label. Q
(Q: 9.34, P: 8.69)

---

# target-of-assay: PDE6 in bovine retina (Bos taurus, UniProt P11541+P23439)
# Construct: obtained by suitably treating various tissues and separating the enzyme with FPLC; from tissue; host or cells: bovine retina
# Sequence (P11541 2-856 limits assumed): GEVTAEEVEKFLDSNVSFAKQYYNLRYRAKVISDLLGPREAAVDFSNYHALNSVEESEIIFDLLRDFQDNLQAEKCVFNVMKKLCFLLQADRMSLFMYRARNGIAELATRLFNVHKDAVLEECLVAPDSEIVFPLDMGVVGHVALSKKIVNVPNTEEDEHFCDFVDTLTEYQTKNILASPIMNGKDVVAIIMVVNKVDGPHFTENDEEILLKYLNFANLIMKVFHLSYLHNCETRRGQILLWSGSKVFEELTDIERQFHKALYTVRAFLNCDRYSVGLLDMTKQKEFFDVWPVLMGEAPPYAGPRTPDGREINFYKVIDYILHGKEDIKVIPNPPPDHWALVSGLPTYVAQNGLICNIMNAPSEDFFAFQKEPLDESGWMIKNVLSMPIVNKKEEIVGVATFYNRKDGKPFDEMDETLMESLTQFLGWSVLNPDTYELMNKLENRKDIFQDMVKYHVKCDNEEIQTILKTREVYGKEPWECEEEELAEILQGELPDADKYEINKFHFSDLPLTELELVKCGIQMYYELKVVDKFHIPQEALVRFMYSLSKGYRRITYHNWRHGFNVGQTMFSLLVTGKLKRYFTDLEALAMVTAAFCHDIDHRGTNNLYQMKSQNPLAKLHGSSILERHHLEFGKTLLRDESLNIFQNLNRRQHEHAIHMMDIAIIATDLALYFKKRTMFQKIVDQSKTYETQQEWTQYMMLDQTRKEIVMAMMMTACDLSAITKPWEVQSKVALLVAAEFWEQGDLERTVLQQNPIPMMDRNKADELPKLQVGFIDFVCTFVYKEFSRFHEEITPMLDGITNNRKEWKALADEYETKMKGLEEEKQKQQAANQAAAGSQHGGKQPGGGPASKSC
# Sequence (P23439 2-850 limits assumed): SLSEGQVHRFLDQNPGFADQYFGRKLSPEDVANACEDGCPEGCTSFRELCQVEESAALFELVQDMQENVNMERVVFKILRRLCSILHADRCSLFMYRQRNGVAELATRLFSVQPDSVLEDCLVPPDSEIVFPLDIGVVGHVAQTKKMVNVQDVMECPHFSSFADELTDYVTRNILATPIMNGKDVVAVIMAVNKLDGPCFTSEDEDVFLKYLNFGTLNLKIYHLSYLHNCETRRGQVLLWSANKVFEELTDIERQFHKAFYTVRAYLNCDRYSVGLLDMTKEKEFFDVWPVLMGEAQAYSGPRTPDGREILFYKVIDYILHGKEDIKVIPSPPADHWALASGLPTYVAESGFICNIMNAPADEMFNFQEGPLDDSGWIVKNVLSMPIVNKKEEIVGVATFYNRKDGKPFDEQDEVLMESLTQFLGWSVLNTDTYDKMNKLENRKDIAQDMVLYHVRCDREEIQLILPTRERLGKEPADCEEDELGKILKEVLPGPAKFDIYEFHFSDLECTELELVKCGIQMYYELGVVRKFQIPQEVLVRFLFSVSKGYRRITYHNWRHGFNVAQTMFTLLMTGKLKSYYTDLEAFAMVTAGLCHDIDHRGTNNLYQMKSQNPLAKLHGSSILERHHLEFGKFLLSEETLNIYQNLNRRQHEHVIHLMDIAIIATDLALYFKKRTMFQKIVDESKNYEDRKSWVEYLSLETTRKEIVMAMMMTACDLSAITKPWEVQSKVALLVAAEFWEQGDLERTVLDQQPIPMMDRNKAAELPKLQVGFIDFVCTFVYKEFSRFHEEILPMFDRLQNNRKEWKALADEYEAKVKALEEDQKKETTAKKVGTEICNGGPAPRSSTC
# test-protocol: PDE6 enzyme inhibition activity test (scintillation proximity)
# Format: biochemical
# condition-notes: selectivity, ratio of IC50 PDE6/IC50 PDE5
metric: PDE6 IC50/PDE5 IC50

P = CCCOc1ccc(NC(=O)CC(=O)OCC)cc1-c1nc(CC)c(CC)c(=O)[nH]1 [Example 102]
Q = CCCOc1ccc(NC(=O)C(N)=O)cc1-c1nc(CC)c(CC)c(=O)[nH]1 [Example 114]
For the two items P and Q , which reports the higher PDE6 IC50/PDE5 IC50 value? Pick one; state its label. Q

---

# target-of-assay: human blood platelet PDE5 (Homo sapiens)
# Construct: obtained by suitably treating various tissues and separating the enzyme with FPLC; from tissue; host or cells: human blood platelets
# test-protocol: PDE5 enzyme inhibition activity test (scintillation proximity)
# Format: biochemical
# condition-notes: as repeated in the PDE6 table
metric: IC50 (nM)

> print(dat)
                                   molecule                           target.of.assay  metric  unit.descriptor  number
1  CCCOc1ccc(S(=O)(=O)N2CCN(CCO)CC2)cc1-c1nc(CC)c(CC)c(=O)[nH]1 [Example 133]  human blood platelet PDE5 (Homo sapiens)    IC50               nM    1.31
2  CCCOc1ccc(C(=O)N2CCCC2C(N)=O)cc1-c1nc(CC)c(CC)c(=O)[nH]1 (stereo not shown) [Example 61]  human blood platelet PDE5 (Homo sapiens)    IC50               nM    1.93

A = CCCOc1ccc(NC(N)=O)cc1-c1nc(CC)c(CC)c(=O)[nH]1 [Example 67]
B = CCCOc1ccc(N/C(=N/CC)N(CC)CC)cc1-c1nc(CC)c(CC)c(=O)[nH]1 [Example 46]
For the two items A and B , which reports the higher IC50 value? Pick one; state its label. A
(A: 1.61 nM, B: 1.09 nM)

// data source = patent US8871777B2
